species: Rattus norvegicus; test: Intrinsic vasorelaxant activity tested in rat aorta; assay type: functional
Measure: Intrinsic activity (%)
The reply should contain only the number, in %.

Lookup: Look at this compound and give its reported Intrinsic activity. CC1(CF)C=C(/C(S)=N\CCC#N)c2cc([N+](=O)[O-])ccc2O1 (configuration not stated)
Found: 59.6

Lookup: Further, for N#CCCNC(=O)C1=CC(C(F)(F)F)(C(F)(F)F)Oc2ccc([N+](=O)[O-])cc21 ?
Found: 64.1

Lookup: Further, for CC(N/C(=N\C#N)Nc1ccncc1)C(C)(C)C (configuration not stated) [PINACIDIL ANHYDROUS] ?
Found: 91.9

Lookup: Further, for C/N=C(/S)C1=CC(C)(CF)Oc2ccc([N+](=O)[O-])cc21 (configuration not stated) ?
Found: 77.1

Lookup: Further, for CNC(=O)C1=CC(C)(CF)Oc2ccc([N+](=O)[O-])cc21 (configuration not stated) ?
Found: 66

Lookup: Further, for CC1(CF)C=C(C(=O)NCCC#N)c2cc([N+](=O)[O-])ccc2O1 (configuration not stated) ?
Found: 71

Lookup: Further, for CC1(C(F)(F)F)C=C(/C(S)=N\CCC#N)c2cc([N+](=O)[O-])ccc2O1 (configuration not stated) ?
Found: 69.7

Lookup: Further, for CC1(C)Oc2ccc(C#N)cc2[C@@H](N2CCCC2=O)[C@@H]1O [CROMAKALIM] ?
Found: 74.7

====

organism: Rattus norvegicus; assay: Negative logarithm of the molar concentration required to relax rat aorta precontracted with 30 mM KCI by 50% of IA; type: functional, organism-based
pEC50: recorded values
Here pEC50 is given on a logarithmic scale as minus log10 of the concentration in mol/L.

Use these answered entries as a reference point.
> print(dat)
                                   compound  endpoint.value
1  CC1(CF)C=C(/C(S)=N\CCC#N)c2cc([N+](=O)[O-])ccc2O1 (stereo not given)            8.73
2  CNC(=O)C1=CC(C)(C(F)(F)F)Oc2ccc([N+](=O)[O-])cc21 (stereo not given)            8.57
3  N#CCC/N=C(\S)C1=CC(CF)(CF)Oc2ccc([N+](=O)[O-])cc21            9.85
4  N#CCCNC(=O)C1=CC(CF)(CF)Oc2ccc([N+](=O)[O-])cc21            8.65
5  CC1(C(F)(F)F)C=C(C(=O)NCCC#N)c2cc([N+](=O)[O-])ccc2O1 (stereo not given)            9.16

Lookup: Look at this compound and give its reported pEC50. C/N=C(/S)C1=CC(CF)(CF)Oc2ccc([N+](=O)[O-])cc21
Found: 9.32

Lookup: Further, for C/N=C(/S)C1=CC(C)(CF)Oc2ccc([N+](=O)[O-])cc21 (stereo not given) ?
Found: 8.79

Lookup: Further, for C/N=C(/S)C1=CC(C(F)(F)F)(C(F)(F)F)Oc2ccc([N+](=O)[O-])cc21 ?
Found: 9.20

Lookup: Further, for CNC(=O)C1=CC(C)(CF)Oc2ccc([N+](=O)[O-])cc21 (stereo not given) ?
Found: 8.05

Lookup: Further, for N#CCC/N=C(/S)C1=CC(C(F)(F)F)(C(F)(F)F)Oc2ccc([N+](=O)[O-])cc21 ?
Found: 9.36

Lookup: Further, for CC1(C(F)(F)F)C=C(/C(S)=N\CCC#N)c2cc([N+](=O)[O-])ccc2O1 (stereo not given) ?
Found: 9.44

Lookup: Further, for C/N=C(/S)C1=CC2(CCC2)Oc2ccc([N+](=O)[O-])cc21 ?
Found: 10.60

Lookup: Further, for CNC(=O)C1=CC(CF)(CF)Oc2ccc([N+](=O)[O-])cc21 ?
Found: 8.29

Lookup: Further, for CC1(C)C=C(C(=O)NCCC#N)c2cc([N+](=O)[O-])ccc2O1 ?
Found: 8.55

Lookup: Further, for CC1(C)C=C(/C(S)=N\CCC#N)c2cc([N+](=O)[O-])ccc2O1 ?
Found: 9.43

Lookup: Further, for N#CCCNC(=O)C1=CC(C(F)(F)F)(C(F)(F)F)Oc2ccc([N+](=O)[O-])cc21 ?
Found: 9.31

====

species on record: Rattus norvegicus; assay: Intrinsic vasorelaxant activity tested in rat aorta; assay type: functional
Intrinsic activity: recorded values
The reply should contain only the number, in %.

> print(dat)
                                   molecule             measure  endpoint.value
1  CNC(=O)C1=CC(C(F)(F)F)(C(F)(F)F)Oc2ccc([N+](=O)[O-])cc21  Intrinsic activity            57.9

Lookup: Look at this molecule and give its reported Intrinsic activity. C/N=C(/S)C1=CC(C)(C)Oc2ccc([N+](=O)[O-])cc21
Found: 63.5

Lookup: Further, for CC1(C(F)(F)F)C=C(C(=O)NCCC#N)c2cc([N+](=O)[O-])ccc2O1 (centres undefined) ?
Found: 70.6

Lookup: Further, for C/N=C(/S)C1=CC(C)(C(F)(F)F)Oc2ccc([N+](=O)[O-])cc21 (centres undefined) ?
Found: 62.5

Lookup: Further, for CNC(=O)C1=CC(C)(C)Oc2ccc([N+](=O)[O-])cc21 ?
Found: 61

Lookup: Further, for CC1(C)C=C(C(=O)NCCC#N)c2cc([N+](=O)[O-])ccc2O1 ?
Found: 73.1

Lookup: Further, for C/N=C(/S)C1=CC(C(F)(F)F)(C(F)(F)F)Oc2ccc([N+](=O)[O-])cc21 ?
Found: 68

Lookup: Further, for N#CCCNC(=O)C1=CC(CF)(CF)Oc2ccc([N+](=O)[O-])cc21 ?
Found: 72.3

====

species on record: Rattus norvegicus; experiment: Negative logarithm of the molar concentration required to relax rat aorta precontracted with 30 mM KCI by 50% of IA; type: functional, organism-based
Measure: pEC50
Here pEC50 is given on a logarithmic scale as minus log10 of the concentration in mol/L.

> print(dat)
                                   compound  measure  endpoint.value
1  CC1(CF)C=C(C(=O)NCCC#N)c2cc([N+](=O)[O-])ccc2O1 (centres undefined)    pEC50            8.40
2  CNC(=O)C1=CC(C(F)(F)F)(C(F)(F)F)Oc2ccc([N+](=O)[O-])cc21    pEC50            8.83
3  C/N=C(/S)C1=CC2(CCCC2)Oc2ccc([N+](=O)[O-])cc21    pEC50           10.68

Lookup: Look at this compound and give its reported pEC50. C/N=C(/S)C1=CC(C)(C(F)(F)F)Oc2ccc([N+](=O)[O-])cc21 (centres undefined)
Found: 9.52

====

species: Rattus norvegicus; assay: Intrinsic vasorelaxant activity tested in rat aorta; format: functional
The label is met for Intrinsic activity below 70% and not met for Intrinsic activity equal to or exceeding 70%.

Lookup: hey, is Intrinsic activity for N#CCC/N=C(/S)C1=CC(C(F)(F)F)(C(F)(F)F)Oc2ccc([N+](=O)[O-])cc21 lower than 70% or not?
Found: not met

Lookup: Further, for N#CCC/N=C(\S)C1=CC(CF)(CF)Oc2ccc([N+](=O)[O-])cc21 ?
Found: not met

Lookup: Further, for CNC(=O)C1=CC(C)(C(F)(F)F)Oc2ccc([N+](=O)[O-])cc21 (stereo unspecified) ?
Found: met

Lookup: Further, for C/N=C(/S)C1=CC(CF)(CF)Oc2ccc([N+](=O)[O-])cc21 ?
Found: not met

Lookup: Further, for CC1(C)C=C(/C(S)=N\CCC#N)c2cc([N+](=O)[O-])ccc2O1 ?
Found: not met
